K reference
- system: Cholinesterase (Homo sapiens, UniProt P06276)
- Sequence (P06276 whole entry): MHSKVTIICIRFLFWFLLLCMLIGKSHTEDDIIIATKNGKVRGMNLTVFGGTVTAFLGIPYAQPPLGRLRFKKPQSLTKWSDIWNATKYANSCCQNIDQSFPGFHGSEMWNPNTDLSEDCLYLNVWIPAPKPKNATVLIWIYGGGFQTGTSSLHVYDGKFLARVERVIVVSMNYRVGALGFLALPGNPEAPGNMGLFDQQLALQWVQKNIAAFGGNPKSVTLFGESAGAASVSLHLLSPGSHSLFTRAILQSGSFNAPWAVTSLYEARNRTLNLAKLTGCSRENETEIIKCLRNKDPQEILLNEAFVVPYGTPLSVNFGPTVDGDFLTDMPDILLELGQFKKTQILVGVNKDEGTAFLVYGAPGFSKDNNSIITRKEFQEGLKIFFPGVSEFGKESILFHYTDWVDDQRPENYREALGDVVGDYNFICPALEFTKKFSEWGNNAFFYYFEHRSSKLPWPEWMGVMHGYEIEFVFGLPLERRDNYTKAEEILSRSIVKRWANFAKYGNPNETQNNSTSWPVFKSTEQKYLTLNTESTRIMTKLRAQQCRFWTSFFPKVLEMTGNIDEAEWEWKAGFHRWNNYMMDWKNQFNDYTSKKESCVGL
- test summary: Inhibition of human plasma BChE assessed as carbamylation by measuring rate constant for […] formation using butyrylthiocholine iodide as substrate preincubated for 5 to 40 mins followed by substrate addition and measured after 2.5 mins by DTNB reagent based UV-spectrometric method
Answer format: numeric, nM implied, no suffix.

Item CN1c2ccc(OC(=O)NCCCCCCCCCCN3CCc4ccccc4C3)cc2CN2CCc3ccccc3C21 (stereo not drawn) has what recorded K?
5.68

Item CN1c2ccc(OC(=O)NCCCCCCn3ccnc3)cc2CN2CCc3ccccc3C21 (stereo not drawn) has what recorded K?
13.1

Item CN1c2ccc(OC(=O)NCCCCCCn3cnc4ccccc43)cc2CN2CCc3ccccc3C21 (stereo not drawn) has what recorded K?
7.7

Item CN1c2ccc(OC(=O)NCCCCCCN3CCc4ccccc4C3)cc2CN2CCc3ccccc3C21 (stereo not drawn) has what recorded K?
3.6

Item CN1c2ccc(OC(=O)NCCCCCCN3CCN(C(=O)OC(C)(C)C)CC3)cc2CN2CCc3ccccc3C21 (stereo not drawn) has what recorded K?
1550

Item CN1c2ccc(OC(=O)NCCCCCCN3CCOCC3)cc2CN2CCc3ccccc3C21 (stereo not drawn) has what recorded K?
202

Item CN1c2ccc(OC(=O)NCCCCCCN3CCNCC3)cc2CN2CCc3ccccc3C21 (stereo not drawn) has what recorded K?
121

* * *

- system: Cholinesterase (Homo sapiens, UniProt P06276)
- test summary: Inhibition of human plasma BChE assessed as decarbamylation by measuring rate constant for enzyme recovery at IC>85 using butyrylthiocholine iodide as substrate incubated for 1 hr prior to compound dilution further incubated for 1 to 40 mins and subsequent substrate addition and measured after 2.5 mins by DTNB reagent based UV-spectrometric method
# if measured K < 0.8 h⁻¹: 1 (yes)  # else: 0 (no)

Please check: K for CN1c2ccc(OC(=O)NCCCCCCN3CCCCC3)cc2CN2CCc3ccccc3C21 (stereo unspecified) , strictly under 0.8 h⁻¹ or not?
1 (yes)

Please check: K for CN1c2ccc(OC(=O)NCCCCCCCCN3CCc4ccccc4C3)cc2CN2CCc3ccccc3C21 (stereo unspecified) , strictly under 0.8 h⁻¹ or not?
0 (no)

Please check: K for CN1c2ccc(OC(=O)NCCCCCCN3CCCC3)cc2CN2CCc3ccccc3C21 (stereo unspecified) , strictly under 0.8 h⁻¹ or not?
0 (no)

Please check: K for CN1c2ccc(OC(=O)NCCCCCCN3CCc4ccccc4C3)cc2CN2CCc3ccccc3C21 (stereo unspecified) , strictly under 0.8 h⁻¹ or not?
1 (yes)

Please check: K for CN1c2ccc(OC(=O)NCCCCCCN3CCOCC3)cc2CN2CCc3ccccc3C21 (stereo unspecified) , strictly under 0.8 h⁻¹ or not?
1 (yes)

Continuing:
Please check: K for CN1c2ccc(OC(=O)NCCCCCCN3CCNCC3)cc2CN2CCc3ccccc3C21 (stereo unspecified) , strictly under 0.8 h⁻¹ or not?
0 (no)

Please check: K for CN1c2ccc(OC(=O)NCCCCCCCCN3CCOCC3)cc2CN2CCc3ccccc3C21 (stereo unspecified) , strictly under 0.8 h⁻¹ or not?
0 (no)

Please check: K for CN1c2ccc(OC(=O)NCCCCCCn3cnc4ccccc43)cc2CN2CCc3ccccc3C21 (stereo unspecified) , strictly under 0.8 h⁻¹ or not?
1 (yes)

Please check: K for CN1c2ccc(OC(=O)NCCCCN3CCOCC3)cc2CN2CCc3ccccc3C21 (stereo unspecified) , strictly under 0.8 h⁻¹ or not?
1 (yes)

Please check: K for CN1c2ccc(OC(=O)NCCCCN3CCc4ccccc4C3)cc2CN2CCc3ccccc3C21 (stereo unspecified) , strictly under 0.8 h⁻¹ or not?
1 (yes)
